# Target Under Test: 5-hydroxytryptamine receptor 1D (Homo sapiens, UniProt P28221)
# Sequence (P28221 whole entry): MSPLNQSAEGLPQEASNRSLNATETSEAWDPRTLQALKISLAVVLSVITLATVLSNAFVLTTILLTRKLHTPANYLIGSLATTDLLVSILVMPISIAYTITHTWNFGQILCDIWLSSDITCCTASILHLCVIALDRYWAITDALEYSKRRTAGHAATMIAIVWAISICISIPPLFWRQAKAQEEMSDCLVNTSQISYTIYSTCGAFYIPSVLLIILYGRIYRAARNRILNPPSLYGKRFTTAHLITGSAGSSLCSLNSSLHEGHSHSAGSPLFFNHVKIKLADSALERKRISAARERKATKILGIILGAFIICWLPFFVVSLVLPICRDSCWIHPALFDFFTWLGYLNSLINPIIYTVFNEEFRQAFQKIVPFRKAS
# Test Method Notes: Binding affinity against 5-hydroxytryptamine 1D receptor alpha expressed in CHO-K1 cells, using [3H]-5-HT as the radioligand.
# Assay type: cell-based
# Run Parameters: read-out: Ki
Returns: string. Value is condition met if measured Ki is below 50 nM, and condition not met if it is greater than or equal to it.

Query: Find out if reported Ki for CCCN(CCC)[C@@H]1CCc2ccc3[nH]cc(C(=O)C(N)=O)c3c2C1 is less than 50 nM
Response: condition not met

Query: Find out if reported Ki for CCCN(CCC)C1CCc2ccc3[nH]ccc3c2C1 (stereo unspecified) is less than 50 nM
Response: condition met

Query: Find out if reported Ki for CCCN(CCC)C1CCc2ccc3[nH]cc(C(=O)C(N)=O)c3c2C1 (stereo unspecified) is less than 50 nM
Response: condition not met

Query: Find out if reported Ki for CCCc1c[nH]c2c(F)cc3c(c12)CC(N(CCC)CCC)CC3 (stereo unspecified) is less than 50 nM
Response: condition met

Query: Find out if reported Ki for CCCN(CCC)[C@H]1CCc2ccc3[nH]cc(C(=O)C(N)=O)c3c2C1 is less than 50 nM
Response: condition not met

Query: Find out if reported Ki for CCCN(CCC)C1CCc2ccc3c(c(C=O)cn3C)c2C1 (stereo unspecified) is less than 50 nM
Response: condition not met

Query: Find out if reported Ki for CCCN(CCC)C1CCc2ccc3[nH]cc(C#N)c3c2C1 (stereo unspecified) is less than 50 nM
Response: condition met

Query: Find out if reported Ki for CCCN(CCC)C1CCc2cc(F)c3c(c(C=O)cn3C)c2C1 (stereo unspecified) is less than 50 nM
Response: condition not met

Query: Find out if reported Ki for CCCN(CCC)[C@H]1CCc2ccc3[nH]cc(C#N)c3c2C1 is less than 50 nM
Response: condition met

Query: Find out if reported Ki for CCCNC1CCc2cc(F)ccc2C1 (stereo unspecified) is less than 50 nM
Response: condition not met

Query: Find out if reported Ki for CCCN(CCC)C1CCc2cc(F)c3[nH]cc(C(=O)CC)c3c2C1 (stereo unspecified) is less than 50 nM
Response: condition met

* * *

# Target Under Test: UniProtKB P61169
# Sequence (P61169 whole entry): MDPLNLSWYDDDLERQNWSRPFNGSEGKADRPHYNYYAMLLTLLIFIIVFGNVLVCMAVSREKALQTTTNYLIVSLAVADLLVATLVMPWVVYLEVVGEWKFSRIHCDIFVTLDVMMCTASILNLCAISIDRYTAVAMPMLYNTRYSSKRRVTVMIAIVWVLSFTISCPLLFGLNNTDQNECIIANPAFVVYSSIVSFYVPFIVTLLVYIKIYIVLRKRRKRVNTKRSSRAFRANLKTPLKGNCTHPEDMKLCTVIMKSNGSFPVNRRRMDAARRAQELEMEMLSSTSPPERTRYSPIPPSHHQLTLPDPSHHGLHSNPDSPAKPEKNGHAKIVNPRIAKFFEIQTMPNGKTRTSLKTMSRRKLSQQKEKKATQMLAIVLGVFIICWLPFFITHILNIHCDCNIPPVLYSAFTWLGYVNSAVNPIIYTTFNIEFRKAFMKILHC
# Test Method Notes: Binding affinity against Dopamine receptor D2 from CHO-K1 cells, using [3H]U-86,170 as the radioligand.
# Type: cell-based
Endpoint Label: pKi
A value of pKi is the negative decimal logarithm of a concentration given in moles per litre.

{"Compound": "CCCN(CCC)C1CCc2cc(F)c3[nH]cc(C#N)c3c2C1 (stereo not given)", "pKi": 7.14}

Query: pKi of CCCN(CCC)[C@@H]1CCc2ccc3[nH]cc(C(=O)C(N)=O)c3c2C1 on UniProtKB P61169?
Response: 6.33

Query: pKi of CCCN(CCC)[C@H]1CCc2cc(F)c3[nH]ccc3c2C1 on UniProtKB P61169?
Response: 8.36

Query: pKi of CCCN(CCC)C1CCc2cc(F)c3c(ccn3C)c2C1 (stereo not given) on UniProtKB P61169?
Response: 7.07

Query: pKi of CCCN(CCC)C1CCc2ccc3c(c2C1)CC(=O)N3 (stereo not given) on UniProtKB P61169?
Response: 7.96

Query: pKi of CCCN(CCC)C1CCc2ccc3c(c(C=O)cn3C)c2C1 (stereo not given) on UniProtKB P61169?
Response: 6.29

Query: pKi of CCCN(CCC)C1CCc2cc(F)c3[nH]ccc3c2C1 (stereo not given) on UniProtKB P61169?
Response: 8.55

Query: pKi of CCCN(CCC)C1CCc2cc(F)c3[nH]cc(C(=O)CC)c3c2C1 (stereo not given) on UniProtKB P61169?
Response: 6.42

Query: pKi of CCCN(CCC)[C@H]1CCc2ccc3[nH]cc(C=O)c3c2C1 on UniProtKB P61169?
Response: 6.37

Query: pKi of CCCN(CCC)[C@@H]1CCc2cc(F)c3[nH]ccc3c2C1 on UniProtKB P61169?
Response: 8.11
